Test system: ACHN renal
Test: NCI-60 one-dose screen, 48 h (100 = growth as untreated, 0 = no growth, -100 = all killed)
Conditions: 10 µM unless noted
This is part of a sample that, as a whole, favours compounds with a hit. Of some 83,000 tested, about 20% had one in any assay.
# growth annotations

[
  {
    "compound": "C=C(C)[C@@H]1CC[C@]2(COP(=O)(OCC)OCC)CC[C@]3(C)[C@H](CC[C@@H]4[C@@]5(C)CCCNC(C)(C)[C@@H]5CC[C@]43C)[C@@H]12",
    "quantity-unit": "%",
    "growth": 59.2
  },
  {
    "compound": "NS(=O)(=O)c1ccc(-n2cc(-c3cccc(NC(=O)c4ccc(N5CCOCC5)c(C(F)(F)F)c4)c3)nn2)cc1",
    "quantity-unit": "%",
    "growth": 43.5
  },
  {
    "compound": "CCCCCc1ccc(S(=O)(=O)Nc2cc(-c3csc(NC(=O)CN4CCN(C)CC4)n3)ccc2OC)cc1",
    "quantity-unit": "%",
    "growth": 3.55
  },
  {
    "compound": "CCC1=Cc2cc(OC)ccc2OC12C=Cc1cc(OC)ccc1O2 (stereo not drawn)",
    "quantity-unit": "%",
    "growth": 45
  },
  {
    "compound": "NS(=O)(=O)c1ccc(Nc2nc(N/N=C/c3ccc(Cl)cc3)nc(Nc3ccccc3)n2)cc1",
    "quantity-unit": "%",
    "growth": 90.1
  },
  {
    "compound": "O=C1/C(=C/C=C/c2ccco2)SC(=S)N1c1ccccc1",
    "quantity-unit": "%",
    "growth": 67.3
  },
  {
    "compound": "CC1(C)CC[C@]23CC[C@]4(C)[C@H](CC[C@@H]5[C@@]6(C)CCCN(CO)C(C)(C)[C@@H]6CC[C@]54C)[C@H]2[C@H]1OC3",
    "quantity-unit": "%",
    "growth": 96.7
  },
  {
    "compound": "O=C(O)c1cn(C2CC2)c2cc(N3CCN(C(=O)CN4C(=O)CSC4=O)CC3)c(F)cc2c1=O",
    "quantity-unit": "%",
    "growth": 93.7
  },
  {
    "compound": "COc1ccc2c(c1)c(CC(=O)[Se]CC#N)c(C)n2C(=O)c1ccc(Cl)cc1",
    "quantity-unit": "%",
    "growth": 12
  },
  {
    "compound": "CCNC(=O)Oc1ccc(/C(=C(/C)c2ccccc2)c2ccc(OCCN3CCCCCC3)cc2)cc1",
    "quantity-unit": "%",
    "growth": 18.9
  },
  {
    "compound": "O=C(c1ccc(Cl)cc1)C1[C@H](c2ccc(Cl)cc2)[C@@H](c2ccccc2)NC12C(=O)Nc1ccccc12 (stereo partly drawn)",
    "quantity-unit": "%",
    "growth": 34.5
  },
  {
    "compound": "CC(=O)c1cc(C(=O)N2c3ccccc3Sc3ccccc32)n2ccc3ccccc3c12",
    "quantity-unit": "%",
    "growth": 42.5
  },
  {
    "compound": "O=C(c1ccc(O)c(C(=O)N2Cc3ccc(OCCC[P+](c4ccccc4)(c4ccccc4)c4ccccc4)cc3C2)c1)N1Cc2cccc(F)c2C1",
    "quantity-unit": "%",
    "growth": 101
  },
  {
    "compound": "COc1ccc(NC(=O)CSc2nnc(-c3ccc4nc(-c5ccc(OC)c(OC)c5)[nH]c4c3)o2)cc1OC",
    "quantity-unit": "%",
    "growth": 94.2
  },
  {
    "compound": "N#Cc1c(-c2cccs2)cc(-c2cnccn2)nc1SCC(=O)Nc1ccc(Br)cc1",
    "quantity-unit": "%",
    "growth": 64.5
  },
  {
    "compound": "CC(c1ccccc1)N1CSc2nc3ncncc3n2C1 (stereo not drawn)",
    "quantity-unit": "%",
    "growth": 45.2
  },
  {
    "compound": "CNC(=O)c1cc(N2CCc3cc(NC(=O)Nc4ccc(Cl)c(C(F)(F)F)c4)ccc32)ccn1",
    "quantity-unit": "%",
    "growth": 38.1
  },
  {
    "compound": "CNC(=O)c1cc(Oc2ccc3nc(NC(=O)c4cccc(OC(F)(F)F)c4)sc3c2)ccn1",
    "quantity-unit": "%",
    "growth": 75.2
  }
]

---

# growth annotations
Test system: T-47D breast
Assay: NCI-60 one-dose screen, 48 h (100 = growth as untreated, 0 = no growth, -100 = all killed)
Conditions: 10 µM unless noted
About 83,000 compounds went through this panel and 20% of them were active in at least one assay; those are over-represented in the sample as a whole. The source made the active and inactive calls. Rule for the calls: active = growth percent below 10; inactive = the rest.
reported-property: growth

[
  {
    "molecule": "CCCn1cnc2c(c1=N)C(c1ccc(F)cc1)c1sc3c(CC)cccc3c1O2 (centres undefined)",
    "result": "72.7% (inactive)"
  },
  {
    "molecule": "CNC(=O)c1cc(-c2ccc(NC(=S)Nc3cc(C(F)(F)F)cc(C(F)(F)F)c3)cc2)nc2cccnc12",
    "result": "85.1% (inactive)"
  },
  {
    "molecule": "CS(=O)(=O)Nc1cc(-c2ccc3ncc(C#N)c(NCc4ccccc4O)c3c2)cnc1Cl",
    "result": "13% (inactive)"
  },
  {
    "molecule": "O=C(O)c1ccc(-n2cc(CNc3cc(F)c(F)c(F)c3)c(-c3ccc(F)cc3)n2)cc1",
    "result": "85.5% (inactive)"
  },
  {
    "molecule": "Nc1nc(Nc2ccccc2SSc2ccccc2Nc2nc(N)nc(-c3cccc(Br)c3)n2)nc(-c2cccc(Br)c2)n1",
    "result": "62.6% (inactive)"
  },
  {
    "molecule": "NC(N)=Nc1ccc(Oc2cccc(Nc3ccc(Cl)c(C(F)(F)F)c3)c2)cn1",
    "result": "15.1% (inactive)"
  },
  {
    "molecule": "NS(=O)(=O)c1ccc(Nc2nc(SCc3ccccc3)nc3ccccc23)cc1",
    "result": "24.8% (inactive)"
  },
  {
    "molecule": "CS(=O)(=O)Nc1cc(-c2ccc3ncc(C#N)c(NCc4ccccc4)c3c2)cnc1Cl",
    "result": "0.176% (active)"
  },
  {
    "molecule": "CCO/C=N/C1=C(C#N)C(c2ccc(OC)cc2)c2sc3c(CC)cccc3c2O1 (centres undefined)",
    "result": "35.8% (inactive)"
  }
]

---

System: MDA-MB-435 melanoma
Assay: NCI-60 one-dose screen, 48 h (100 = growth as untreated, 0 = no growth, -100 = all killed)
Details: 10 µM unless noted
The panel holds about 83,000 compounds, 20% with a hit somewhere; the sample as a whole holds those more often.

[
  {
    "compound": "O=C1CCC(N2C(=O)c3ccc(NS(=O)(=O)c4ccccc4OC(F)(F)F)cc3C2=O)C(=O)N1 (centres undefined)",
    "growth (%)": 64.4
  },
  {
    "compound": "COc1ccc(Cn2cc3c(c2-c2cc(OC)c(OC)c(OC)c2)CCc2c(CN4CCOCC4)noc2-3)cc1",
    "growth (%)": -19.9
  },
  {
    "compound": "CNC(=O)c1cc(Oc2ccc3nc(NC(=O)c4cc(N5CCOCC5)cc(C(F)(F)F)c4)sc3c2)ccn1",
    "growth (%)": 67.8
  },
  {
    "compound": "NC(N)=Nc1ccc(Oc2cccc(Nc3ccc(Cl)cc3)c2)cn1",
    "growth (%)": 14.3
  },
  {
    "compound": "O=C(Nc1ccc(F)c(F)c1)c1cc(-c2ccc(F)cc2F)ccc1O",
    "growth (%)": 1.2
  },
  {
    "compound": "COc1ccc2c(c1)Oc1nc(N)c(C#N)c(N)c1C2Sc1ccc(C)cc1 (centres undefined)",
    "growth (%)": -8.09
  },
  {
    "compound": "COc1ccc(/C=C/C(=O)c2cccc(NC(=O)CSc3nc4ccccc4c(=O)n3-c3ccccc3)c2)cc1OC",
    "growth (%)": 101
  },
  {
    "compound": "CCCCCc1ccc(S(=O)(=O)Nc2cc(-c3csc(NC(=O)CN4CCN(CCO)CC4)n3)ccc2OC)cc1",
    "growth (%)": -48.6
  },
  {
    "compound": "COc1cc2c(cc1OC)C(Sc1ccc(C)cc1)c1c(nc(N)c(C#N)c1N)O2 (centres undefined)",
    "growth (%)": -31.3
  },
  {
    "compound": "NC(N)=Nc1ccc(Oc2cccc(Nc3ccc(Br)c(C(F)(F)F)c3)c2)cc1",
    "growth (%)": 8.6
  },
  {
    "compound": "Nc1nc(Nc2ccccc2SSc2ccccc2Nc2nc(N)nc(-c3ccc4ccccc4c3)n2)nc(-c2ccc3ccccc3c2)n1",
    "growth (%)": 85.2
  },
  {
    "compound": "COc1ccc(S(=O)(=O)NCCCNc2nccc(-c3[nH]c(-c4ccccc4)nc3-c3ccc(Cl)c(O)c3)n2)cc1",
    "growth (%)": 36.9
  },
  {
    "compound": "COc1ccccc1NC1=C(Cl)C(=O)c2nc(C)ccc2C1=O",
    "growth (%)": -86
  },
  {
    "compound": "COc1cc(OC)c(/C=C/S(=O)(=O)Cc2ccc(OC)c(NC(=O)CCC(=O)NO)c2)c(OC)c1",
    "growth (%)": -2.23
  },
  {
    "compound": "O=C1CCCC2=C1C(c1c[nH]c3ccc(Br)cc13)Cc1cc(Br)ccc1N2 (centres undefined)",
    "growth (%)": -10.2
  },
  {
    "compound": "NC(N)=Nc1ccc(Nc2cccc(Oc3ccc(Cl)c(C(F)(F)F)c3)c2)cn1",
    "growth (%)": 18.3
  },
  {
    "compound": "O=C(Nc1ccc2c(ccn2Cc2ccccn2)c1)c1cnccn1",
    "growth (%)": 100
  },
  {
    "compound": "COc1ccc(NC(=O)CSc2nnc(-c3ccc4nc(-c5ccc(OC)c(OC)c5)[nH]c4c3)o2)cc1OC",
    "growth (%)": 102
  },
  {
    "compound": "CCN(CC)c1ccc(NC2=C(Cl)C(=O)c3nc(C)ccc3C2=O)cc1",
    "growth (%)": -76
  }
]
